B1: HMOX1 (parent)
chain: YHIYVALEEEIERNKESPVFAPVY

variants of: B1; assay: protein stability index of a GFP-peptide fusion (GPS, HEK-293T) (PSI 1-6); higher = more stable; conditions: c terminus: a fixed tail appended;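 further: lentivirally expressed fusions sorted by FACS into six bins by GFP to DsRed ratio, PSI derived from sequencing read proportions per bin multiplied by bin number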
Quick list: protein stability index per entry.

[
  {
    "mutation.name": "S17R",
    "protein stability index": 2.2
  },
  {
    "mutation.name": "E8K",
    "protein stability index": 2.07
  },
  {
    "mutation.name": "E16I",
    "protein stability index": 1.42
  },
  {
    "mutation.name": "I3T",
    "protein stability index": 1.92
  },
  {
    "mutation.name": "V19K",
    "protein stability index": 1.99
  },
  {
    "mutation.name": "F20I",
    "protein stability index": 2.25
  },
  {
    "mutation.name": "A6N",
    "protein stability index": 1.59
  },
  {
    "mutation.name": "V5H",
    "protein stability index": 2.34
  },
  {
    "mutation.name": "I3G",
    "protein stability index": 2.77
  },
  {
    "mutation.name": "Y4S",
    "protein stability index": 1.58
  },
  {
    "mutation.name": "S17M",
    "protein stability index": 1.93
  },
  {
    "mutation.name": "E8H",
    "protein stability index": 2.18
  },
  {
    "mutation.name": "Y24G",
    "protein stability index": 2.83
  },
  {
    "mutation.name": "F20Y",
    "protein stability index": 2.19
  },
  {
    "mutation.name": "Y24P",
    "protein stability index": 3.47
  },
  {
    "mutation.name": "F20A",
    "protein stability index": 2.41
  },
  {
    "mutation.name": "E16W",
    "protein stability index": 2.14
  },
  {
    "mutation.name": "S17H",
    "protein stability index": 1.83
  },
  {
    "mutation.name": "V23C",
    "protein stability index": 2.12
  },
  {
    "mutation.name": "S17N",
    "protein stability index": 2.05
  },
  {
    "mutation.name": "E8N",
    "protein stability index": 1.94
  },
  {
    "mutation.name": "H2V",
    "protein stability index": 2.59
  },
  {
    "mutation.name": "P18V",
    "protein stability index": 1.59
  },
  {
    "mutation.name": "F20T",
    "protein stability index": 2.57
  },
  {
    "mutation.name": "N14H",
    "protein stability index": 2.14
  },
  {
    "mutation.name": "E10Y",
    "protein stability index": 2
  },
  {
    "mutation.name": "K15T",
    "protein stability index": 1.36
  },
  {
    "mutation.name": "K15N",
    "protein stability index": 1.7
  },
  {
    "mutation.name": "A6D",
    "protein stability index": 1.81
  },
  {
    "mutation.name": "E8A",
    "protein stability index": 2.31
  },
  {
    "mutation.name": "A21T",
    "protein stability index": 2
  },
  {
    "mutation.name": "E8I",
    "protein stability index": 2.51
  },
  {
    "mutation.name": "E12P",
    "protein stability index": 3.7
  },
  {
    "mutation.name": "A6E",
    "protein stability index": 1.88
  },
  {
    "mutation.name": "E10M",
    "protein stability index": 1.77
  },
  {
    "mutation.name": "E16A",
    "protein stability index": 2.67
  },
  {
    "mutation.name": "F20S",
    "protein stability index": 2.78
  },
  {
    "mutation.name": "Y1Q",
    "protein stability index": 2.78
  },
  {
    "mutation.name": "V5A",
    "protein stability index": 3.79
  },
  {
    "mutation.name": "N14A",
    "protein stability index": 1.72
  },
  {
    "mutation.name": "R13T",
    "protein stability index": 1.19
  },
  {
    "mutation.name": "V19M",
    "protein stability index": 2.24
  },
  {
    "mutation.name": "A21C",
    "protein stability index": 1.72
  },
  {
    "mutation.name": "Y1V",
    "protein stability index": 1.67
  },
  {
    "mutation.name": "A6I",
    "protein stability index": 2.02
  },
  {
    "mutation.name": "H2Y",
    "protein stability index": 1.89
  }
]
